- Test system: native GABAA receptors
- procedure text: GABAA antagonism using native receptors in primary neuronal cultures (FLIPR calcium flux)
- Assay type: cell-based, rat
- protocol conditions: against 10 μM GABA
pIC50: −log10 of the molar value. Counter-ions that a name gives are not always drawn.
result type: pIC50

In: Name the recorded pIC50 of the compound listed here: Cc1ccc2c(c1)Oc1sc(Cl)cc1C(N1CCN(CC(C)(C)C(=O)O)CC1)=N2 [Example 3, dihydrochloride]
Out: < 4.00

---

- subject of test: 5-HT1B (Homo sapiens (Human))
- Sequence (P28222 whole entry, species assumed): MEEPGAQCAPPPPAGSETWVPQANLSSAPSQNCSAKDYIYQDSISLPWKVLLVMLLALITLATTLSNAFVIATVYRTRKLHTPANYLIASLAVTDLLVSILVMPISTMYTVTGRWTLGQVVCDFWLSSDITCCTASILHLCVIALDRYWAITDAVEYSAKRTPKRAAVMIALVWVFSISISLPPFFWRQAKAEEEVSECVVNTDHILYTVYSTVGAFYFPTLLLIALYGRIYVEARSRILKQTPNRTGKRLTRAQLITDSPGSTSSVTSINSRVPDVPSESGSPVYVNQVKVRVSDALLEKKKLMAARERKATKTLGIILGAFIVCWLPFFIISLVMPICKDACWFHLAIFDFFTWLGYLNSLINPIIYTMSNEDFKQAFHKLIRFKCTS
pKi: −log10 of the molar value. Structures can show the parent of a compound that is named as a salt.
result type: pKi

In: Under 5-HT1B (Homo sapiens (Human)), report pKi for Cc1ccc2c(c1)Oc1sc(Cl)cc1C(N1CCN(CC(C)(C)C(=O)O)CC1)=N2 [Example 3, dihydrochloride]
Out: < 5.25
